IC50 tested on human GST-CLK1 (Homo sapiens): recorded values
Sequence (P49759 129-484 limits assumed): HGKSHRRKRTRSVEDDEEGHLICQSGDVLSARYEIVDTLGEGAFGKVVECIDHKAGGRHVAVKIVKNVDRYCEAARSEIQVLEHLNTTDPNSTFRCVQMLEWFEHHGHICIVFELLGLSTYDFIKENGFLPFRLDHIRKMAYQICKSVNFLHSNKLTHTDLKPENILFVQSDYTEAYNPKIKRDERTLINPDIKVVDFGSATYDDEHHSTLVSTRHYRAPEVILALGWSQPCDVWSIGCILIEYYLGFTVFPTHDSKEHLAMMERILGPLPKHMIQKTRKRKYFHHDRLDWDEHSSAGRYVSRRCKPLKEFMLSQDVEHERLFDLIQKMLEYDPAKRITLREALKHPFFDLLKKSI

>  <compound>
CNc1nc(Nc2ccc(C(=O)N3CCOCC3)c3c2OCO3)nc2[nH]cc(C(F)(F)F)c12

>  <target_or_test_system>
human GST-CLK1 (Homo sapiens)

>  <IC50>
< 100 nM

$$$$
>  <compound>
O=C(c1ccc(Nc2nc(NC3CCOCC3)c3cc[nH]c3n2)c2c1OCCO2)N1CCOCC1 [Example 52, 2,2,2-trifluoroacetate]

>  <target_or_test_system>
human GST-CLK1 (Homo sapiens)

>  <IC50>
301 to 1000 nM

$$$$
>  <compound>
COc1cc(P2(=O)CCN(C3CCOCC3)CC2)ccc1Nc1nc(NC2CCCC2)c2cc[nH]c2n1

>  <target_or_test_system>
human GST-CLK1 (Homo sapiens)

>  <IC50>
301 to 1000 nM

$$$$
>  <compound>
CC[C@H](C)Nc1nc(Nc2ccc(C(=O)N3CCC(N4CCOCC4)CC3)c3c2OCC3)nc2[nH]cc(C(F)(F)F)c12

>  <target_or_test_system>
human GST-CLK1 (Homo sapiens)

>  <IC50>
< 100 nM

$$$$
>  <compound>
CC(C)Nc1nc(Nc2ccc(C(=O)N3CCOCC3)c3c2OCCO3)nc2[nH]cc(C(F)(F)F)c12

>  <target_or_test_system>
human GST-CLK1 (Homo sapiens)

>  <IC50>
301 to 1000 nM

$$$$

`COc1cc(P(C)(C)=O)ccc1Nc1nc(N[C@@H]2CCOC2)c2c(C#N)c[nH]c2n1` tested on human GST-CLK1 (Homo sapiens) gave IC50: 301 to 1000 nM

----------
- target_or_test_system: DYRK1A (Homo sapiens, UniProt Q13627)
- Construct: purchased DiscoverX Corp. (ScanMAX Kinase analysis panel, service)
- assay_explanation: ScanMAX Kinase analysis panel, DYRK1A
- Type: binding
- measurement_parameters: 1 μM in DMSO; <35% considered inhibitory; read-out: percent control (% control), DYRK1A
assay_metric: remaining binding at 1 µM (%)
Unit % implied. Number only.

>  <compound>
CNc1nc(Nc2ccc(C(=O)N3CCC(N4CCOCC4)CC3)c3c2OCCO3)nc2[nH]cc(C(F)(F)F)c12

>  <value_units>
%

>  <endpoint_result>
0.25

$$$$

CCNc1nc(Nc2ccc(S(=O)(=O)N3CCC(N4CCOCC4)CC3)cc2OC)nc2[nH]cc(C(F)(F)F)c12 [Example 158, 2,2,2-trifluoroacetate] tested on DYRK1A (Homo sapiens, UniProt Q13627) gave remaining binding at 1 µM: 0.75

`CCCNc1nc(Nc2ccc(S(=O)(=O)N3CCC(N4CCOCC4)CC3)cc2OC)nc2[nH]cc(C(F)(F)F)c12` tested on DYRK1A (Homo sapiens, UniProt Q13627) gave remaining binding at 1 µM: 2

----------
- target_or_test_system: LRRK2 (Homo sapiens, UniProt Q5S007)
- Sequence (Q5S007 whole entry): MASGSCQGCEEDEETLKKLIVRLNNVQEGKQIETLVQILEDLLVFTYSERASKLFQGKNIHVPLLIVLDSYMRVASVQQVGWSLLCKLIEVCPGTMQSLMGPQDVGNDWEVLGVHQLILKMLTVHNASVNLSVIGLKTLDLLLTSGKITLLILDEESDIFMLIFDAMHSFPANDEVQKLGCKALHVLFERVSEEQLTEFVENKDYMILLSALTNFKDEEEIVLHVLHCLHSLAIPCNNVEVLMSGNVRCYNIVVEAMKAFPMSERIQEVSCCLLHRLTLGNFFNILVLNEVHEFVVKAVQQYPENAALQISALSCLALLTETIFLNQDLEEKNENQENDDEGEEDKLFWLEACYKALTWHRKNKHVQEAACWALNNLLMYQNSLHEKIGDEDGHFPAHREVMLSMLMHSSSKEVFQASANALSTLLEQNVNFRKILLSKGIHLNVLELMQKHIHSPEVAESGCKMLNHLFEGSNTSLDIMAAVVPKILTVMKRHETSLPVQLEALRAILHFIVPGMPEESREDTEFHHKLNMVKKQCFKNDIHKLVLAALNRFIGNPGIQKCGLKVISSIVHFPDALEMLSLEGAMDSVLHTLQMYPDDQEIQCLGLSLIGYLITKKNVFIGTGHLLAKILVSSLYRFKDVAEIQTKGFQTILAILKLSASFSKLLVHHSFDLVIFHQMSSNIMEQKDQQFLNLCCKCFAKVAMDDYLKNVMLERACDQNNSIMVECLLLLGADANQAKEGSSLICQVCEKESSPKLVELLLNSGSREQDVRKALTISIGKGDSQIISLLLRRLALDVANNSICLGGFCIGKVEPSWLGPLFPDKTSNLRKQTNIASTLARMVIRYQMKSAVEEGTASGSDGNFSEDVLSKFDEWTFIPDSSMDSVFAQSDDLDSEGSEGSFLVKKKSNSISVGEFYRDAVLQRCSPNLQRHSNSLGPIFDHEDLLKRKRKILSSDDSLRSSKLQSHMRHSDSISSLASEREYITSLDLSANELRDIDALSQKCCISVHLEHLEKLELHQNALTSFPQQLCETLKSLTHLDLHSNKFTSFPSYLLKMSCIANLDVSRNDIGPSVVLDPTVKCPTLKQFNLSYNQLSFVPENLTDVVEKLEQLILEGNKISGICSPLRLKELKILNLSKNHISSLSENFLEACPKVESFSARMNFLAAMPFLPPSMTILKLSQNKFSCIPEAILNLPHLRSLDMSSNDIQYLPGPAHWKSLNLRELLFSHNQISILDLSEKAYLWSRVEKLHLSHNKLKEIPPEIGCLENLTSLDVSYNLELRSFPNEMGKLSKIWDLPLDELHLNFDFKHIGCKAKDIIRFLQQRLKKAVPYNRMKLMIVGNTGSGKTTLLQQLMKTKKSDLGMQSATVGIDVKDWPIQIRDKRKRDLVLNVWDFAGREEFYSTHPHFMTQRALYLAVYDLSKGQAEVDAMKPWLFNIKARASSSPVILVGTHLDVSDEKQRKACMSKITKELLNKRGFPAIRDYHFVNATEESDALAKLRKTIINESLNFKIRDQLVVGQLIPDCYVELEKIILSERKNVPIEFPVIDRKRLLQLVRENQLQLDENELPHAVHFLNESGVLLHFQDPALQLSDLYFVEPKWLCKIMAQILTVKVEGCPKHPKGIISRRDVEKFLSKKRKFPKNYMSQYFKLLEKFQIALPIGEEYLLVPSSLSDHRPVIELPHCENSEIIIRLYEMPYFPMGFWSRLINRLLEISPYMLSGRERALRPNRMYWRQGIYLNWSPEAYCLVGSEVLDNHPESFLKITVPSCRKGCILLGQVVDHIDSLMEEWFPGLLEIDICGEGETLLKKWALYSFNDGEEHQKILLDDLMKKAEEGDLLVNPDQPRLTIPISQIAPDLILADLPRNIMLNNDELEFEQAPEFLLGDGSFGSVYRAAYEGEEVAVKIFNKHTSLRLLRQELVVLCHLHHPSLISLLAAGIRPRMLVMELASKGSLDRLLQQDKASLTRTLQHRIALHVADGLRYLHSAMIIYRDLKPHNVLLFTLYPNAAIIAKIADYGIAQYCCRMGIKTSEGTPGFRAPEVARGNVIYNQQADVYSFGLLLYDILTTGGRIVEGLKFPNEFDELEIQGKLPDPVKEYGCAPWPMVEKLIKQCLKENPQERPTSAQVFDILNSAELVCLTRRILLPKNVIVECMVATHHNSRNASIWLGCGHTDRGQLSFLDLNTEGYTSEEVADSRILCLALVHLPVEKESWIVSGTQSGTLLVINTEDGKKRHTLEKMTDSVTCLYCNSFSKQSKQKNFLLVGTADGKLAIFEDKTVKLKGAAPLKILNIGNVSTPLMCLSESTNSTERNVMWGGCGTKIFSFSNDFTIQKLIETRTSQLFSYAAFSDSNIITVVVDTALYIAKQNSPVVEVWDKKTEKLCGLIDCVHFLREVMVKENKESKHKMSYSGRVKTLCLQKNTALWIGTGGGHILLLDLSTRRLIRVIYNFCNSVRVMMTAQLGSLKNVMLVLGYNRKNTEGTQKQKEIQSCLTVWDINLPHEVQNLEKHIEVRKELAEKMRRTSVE
- assay_explanation: ScanMAX Kinase analysis panel, LRRK2
- Assay type: binding
- Set-up: purchased DiscoverX Corp. (ScanMAX Kinase analysis panel, service)
- measurement_parameters: 1 μM in DMSO; <35% considered inhibitory; read-out: percent control (% control), LRRK2
assay_metric: remaining binding at 1 µM

Below are worked cases with known answers.
>  <compound>
CNc1nc(Nc2ccc(S(=O)(=O)N3CCC(N4CCOCC4)CC3)cc2OC)nc2[nH]cc(C(F)(F)F)c12 [Example 157, 2,2,2-trifluoroacetate]

>  <remaining binding at 1 µM>
0.7%

$$$$
>  <compound>
CCCNc1nc(Nc2ccc(S(=O)(=O)N3CCC(N4CCOCC4)CC3)cc2OC)nc2[nH]cc(C(F)(F)F)c12

>  <remaining binding at 1 µM>
1%

$$$$
>  <compound>
C=CCNc1nc(Nc2ccc(S(=O)(=O)N3CCC(N4CCOCC4)CC3)cc2OC)nc2[nH]cc(C#N)c12

>  <remaining binding at 1 µM>
0%

$$$$

response.value for `CNc1nc(Nc2ccc(C(=O)N3CCC(N4CCOCC4)CC3)c3c2OCCO3)nc2[nH]cc(C(F)(F)F)c12` (field: remaining binding at 1 µM) = 0.45%

response.value for CCNc1nc(Nc2ccc(S(=O)(=O)N3CCC(N4CCOCC4)CC3)cc2OC)nc2[nH]cc(C(F)(F)F)c12 [Example 158, 2,2,2-trifluoroacetate] (field: remaining binding at 1 µM) = 0%

response.value for `O=C(c1ccc(Nc2nc(C3CC3)c3c(C(F)(F)F)c[nH]c3n2)c2c1OCCO2)N1CCC(N2CCOCC2)CC1` (field: remaining binding at 1 µM) = 0.3%

response.value for `CNc1nc(Nc2ccc(P3(=O)CCN(C4CC4)CC3)cc2OC)nc2[nH]cc(C(F)(F)F)c12` (field: remaining binding at 1 µM) = 1.9%

----------
IC50 tested on human GST-CLK1 (Homo sapiens): recorded values

>  <compound>
CC(C)CNc1nc(Nc2ccc(C(=O)N3CCC(N4CCOCC4)CC3)c3c2OCC3)nc2[nH]cc(C#N)c12 [Example 351]

>  <target_or_test_system>
human GST-CLK1 (Homo sapiens)

>  <IC50>
< 100 nM

$$$$
>  <compound>
CCNc1nc(Nc2ccc(C(=O)N3CCOCC3)c3c2OCCO3)nc2[nH]cc(C(F)(F)F)c12 [Example 156, 2,2,2-trifluoroacetate]

>  <target_or_test_system>
human GST-CLK1 (Homo sapiens)

>  <IC50>
< 100 nM

$$$$

CC(C)Nc1nc(Nc2ccc(C(=O)N3CC(CO)(CO)C3)c3c2OCCO3)nc2[nH]cc(C#N)c12 [Example 329] tested on human GST-CLK1 (Homo sapiens) gave IC50: < 100 nM

COc1cc(S(=O)(=O)N2CCOCC2)ccc1Nc1nc(NCC2CC2)c2cc[nH]c2n1 [Example 31, 2,2,2-trifluoroacetate] tested on human GST-CLK1 (Homo sapiens) gave IC50: 301 to 1000 nM

COc1cc(S(=O)(=O)N2CCOCC2)ccc1Nc1nc(N[C@@H]2CCOC2)c2c(C#N)c[nH]c2n1 [Example 74] tested on human GST-CLK1 (Homo sapiens) gave IC50: 301 to 1000 nM

CCNc1nc(Nc2ccc(C(=O)N3CCOCC3)c3c2OCCO3)nc2[nH]ccc12 [Example 58, 2,2,2-trifluoroacetate] tested on human GST-CLK1 (Homo sapiens) gave IC50: 301 to 1000 nM

COc1cc(S(=O)(=O)N2CCC(N3CCOCC3)CC2)ccc1Nc1nc(NCC2CCCC2)c2cc[nH]c2n1 [Example 41, 2,2,2-trifluoroacetate] tested on human GST-CLK1 (Homo sapiens) gave IC50: 301 to 1000 nM

N#Cc1c[nH]c2nc(Nc3ccc(C(=O)N4CCN(C5COC5)CC4)c4c3OCCO4)nc(NC3CCOCC3)c12 [Example 316] tested on human GST-CLK1 (Homo sapiens) gave IC50: < 100 nM

COc1cc(S(C)(=O)=O)ccc1Nc1nc(NCC2CCCC2)c2c(C(F)(F)F)c[nH]c2n1 [Example 206] tested on human GST-CLK1 (Homo sapiens) gave IC50: 301 to 1000 nM

O=C(c1ccc(Nc2nc(NCC3CCC3)c3c(C(F)(F)F)c[nH]c3n2)c2c1CCO2)N1CCOCC1 [Example 458] tested on human GST-CLK1 (Homo sapiens) gave IC50: 301 to 1000 nM

----------
- target_or_test_system: CLK3 (Homo sapiens, UniProt P49761)
- Construct: purchased DiscoverX Corp. (ScanMAX Kinase analysis panel, service)
- Sequence (P49761 whole entry): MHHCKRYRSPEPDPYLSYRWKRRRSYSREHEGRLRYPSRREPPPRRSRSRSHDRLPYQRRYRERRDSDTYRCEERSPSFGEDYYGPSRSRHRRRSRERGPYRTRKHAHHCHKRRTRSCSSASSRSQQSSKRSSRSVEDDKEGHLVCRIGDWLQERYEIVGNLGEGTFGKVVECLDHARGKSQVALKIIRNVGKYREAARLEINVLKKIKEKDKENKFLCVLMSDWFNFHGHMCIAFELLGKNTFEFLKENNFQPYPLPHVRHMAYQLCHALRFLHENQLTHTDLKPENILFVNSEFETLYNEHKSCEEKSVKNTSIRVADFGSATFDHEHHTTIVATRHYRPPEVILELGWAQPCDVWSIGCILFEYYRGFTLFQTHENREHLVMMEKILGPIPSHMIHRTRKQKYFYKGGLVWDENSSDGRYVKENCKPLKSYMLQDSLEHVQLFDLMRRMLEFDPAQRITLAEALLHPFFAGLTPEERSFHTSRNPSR
- assay_explanation: ScanMAX Kinase analysis panel, CLK3
- Assay type: binding
- measurement_parameters: 1 μM in DMSO; <35% considered inhibitory; read-out: percent control (% control), CLK3
assay_metric: remaining binding at 1 µM (%)
Unit % implied. Number only.

>  <compound>
CNc1nc(Nc2ccc(P3(=O)CCN(C4CC4)CC3)cc2OC)nc2[nH]cc(C(F)(F)F)c12

>  <remaining binding at 1 µM [%]>
21

$$$$
>  <compound>
O=C(c1ccc(Nc2nc(C3CC3)c3c(C(F)(F)F)c[nH]c3n2)c2c1OCCO2)N1CCC(N2CCOCC2)CC1

>  <remaining binding at 1 µM [%]>
25

$$$$
>  <compound>
C=CCNc1nc(Nc2ccc(S(=O)(=O)N3CCC(N4CCOCC4)CC3)cc2OC)nc2[nH]cc(C#N)c12

>  <remaining binding at 1 µM [%]>
21

$$$$
>  <compound>
CCNc1nc(Nc2ccc(S(=O)(=O)N3CCC(N4CCOCC4)CC3)cc2OC)nc2[nH]cc(C(F)(F)F)c12 [Example 158, 2,2,2-trifluoroacetate]

>  <remaining binding at 1 µM [%]>
11

$$$$
>  <compound>
CNc1nc(Nc2ccc(S(=O)(=O)N3CCC(N4CCOCC4)CC3)cc2OC)nc2[nH]cc(C(F)(F)F)c12 [Example 157, 2,2,2-trifluoroacetate]

>  <remaining binding at 1 µM [%]>
3.7

$$$$
>  <compound>
CNc1nc(Nc2ccc(C(=O)N3CCC(N4CCOCC4)CC3)c3c2OCCO3)nc2[nH]cc(C(F)(F)F)c12

>  <remaining binding at 1 µM [%]>
7.8

$$$$

From here, focus on the item given below.
response.value for `CCCNc1nc(Nc2ccc(S(=O)(=O)N3CCC(N4CCOCC4)CC3)cc2OC)nc2[nH]cc(C(F)(F)F)c12` (field: remaining binding at 1 µM) = 11
